# target or system: CDK4 (Homo sapiens (Human), UniProt P11802)
# Sequence (P11802 whole entry): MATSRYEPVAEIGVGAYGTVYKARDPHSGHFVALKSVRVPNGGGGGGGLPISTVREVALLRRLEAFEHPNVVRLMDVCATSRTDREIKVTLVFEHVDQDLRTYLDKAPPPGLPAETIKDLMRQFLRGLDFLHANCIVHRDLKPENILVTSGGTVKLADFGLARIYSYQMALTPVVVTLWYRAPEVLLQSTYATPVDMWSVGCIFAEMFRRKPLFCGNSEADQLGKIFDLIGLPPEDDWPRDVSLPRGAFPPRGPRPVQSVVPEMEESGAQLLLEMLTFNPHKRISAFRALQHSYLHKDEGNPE
# Sequence (P24385 whole entry partner): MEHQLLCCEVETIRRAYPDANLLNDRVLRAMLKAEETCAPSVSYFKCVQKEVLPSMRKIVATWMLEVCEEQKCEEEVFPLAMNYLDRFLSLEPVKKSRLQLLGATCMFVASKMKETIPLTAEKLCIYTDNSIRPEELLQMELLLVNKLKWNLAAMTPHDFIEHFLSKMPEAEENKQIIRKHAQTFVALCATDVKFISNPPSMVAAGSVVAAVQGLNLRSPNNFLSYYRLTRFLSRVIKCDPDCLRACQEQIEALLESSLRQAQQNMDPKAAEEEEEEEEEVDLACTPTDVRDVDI
property measured: pKi
Please report pKi as the negative decimal logarithm of the molar concentration, giving only the number.

query: Entry Cc1nc2c(F)cc(-c3nc(Nc4ccc(CN5CCO[C@@](C)(C[C@H](C)N(C)C)C5)cn4)ncc3F)cc2n1C(C)C [Compound A23] : reported pKi = ?
result: 8.96

query: Then Cc1nc2c(F)cc(-c3nc(Nc4ccc(CN5CCO[C@](C)(CCN(C)C)C5)cn4)ncc3F)cc2n1C(C)C [Compound A2] ?
result: 9.14

query: Then Cc1nc2c(F)cc(-c3nc(Nc4ccc(CN5CCO[C@@](C)(CCN(C)C)C5)cn4)ncc3F)cc2n1C(C)C [Compound A1] ?
result: 9.19

query: Then Cc1nc2c(F)cc(-c3nc(Nc4ccc(CN5CCO[C@]6(CCN(C(=O)OC(C)(C)C)C6)C5)cn4)ncc3F)cc2n1C(C)C [Compound A42] ?
result: 8.19

query: Then Cc1nc2c(F)cc(-c3nc(Nc4ccc(CN5CCO[C@](C)(CC(=O)N6CC(F)(F)C6)C5)cn4)ncc3F)cc2n1C(C)C [Compound A56] ?
result: 8.62

---
query: Entry COC(=O)N1CC[C@@]2(CN(Cc3ccc(Nc4ncc(F)c(-c5cc(F)c6nc(C)n(C(C)C)c6c5)n4)nc3)CCO2)C1 [Compound A33] : reported pKi = ?
result: 8.47

query: Then Cc1nc2c(F)cc(-c3nc(Nc4ccc(CN5CCO[C@@](C)(C[C@@H](C)O)C5)cn4)ncc3F)cc2n1C(C)C (single isomer, unassigned) [Compound A52] ?
result: 8.45

###

# Test system: CYP isozymes (IC50s averaged over the isozymes)
# assay remarks: CYP Enzymatic Inhibition Assay in human liver microsomes
property measured: IC50 at 10 min (µM)
Numeric answer only, unit µM assumed.

Example results:
query: Entry Cc1nc2c(F)cc(-c3nc(Nc4ccc(CN5CCO[C@@](C)(C[C@@H](C)N(C)C)C5)cn4)ncc3F)cc2n1C(C)C [Compound A28, methanesulfonate] : reported IC50 at 10 min = ?
result: 94

query: Then CCN(CC)CCC1(C)CN(Cc2ccc(Nc3ncc(F)c(-c4cc(F)c5nc(C)n(C(C)C)c5c4)n3)nc2)CCO1 (stereo in doubt) [Compound A3] ?
result: 37.2

query: Then CC(=O)N1CC[C@]2(CN(Cc3ccc(Nc4ncc(F)c(-c5cc(F)c6nc(C)n(C(C)C)c6c5)n4)nc3)CCO2)C1 [Compound A37] ?
result: 43.3

query: Then Cc1nc2c(F)cc(-c3nc(Nc4ccc(CN5CCO[C@]6(CCN(S(C)(=O)=O)C6)C5)cn4)ncc3F)cc2n1C(C)C [Compound A32] ?
result: 31.5

query: Then CCN1CCN(Cc2ccc(Nc3ncc(F)c(-c4cc(F)c5nc(C)n(C(C)C)c5c4)n3)nc2)CC1 [Abemaciclib MS, Abemaciclib, reference compound] ?
result: 63.7

---
query: Entry CCC[C@@]1(C)CN(Cc2ccc(Nc3ncc(F)c(-c4cc(F)c5nc(C)n(C(C)C)c5c4)n3)nc2)CCN1 [Compound A47] : reported IC50 at 10 min = ?
result: 30

query: Then Cc1nc2c(F)cc(-c3nc(Nc4ccc(CN5CCO[C@](C)(CCN(C)CC(F)F)C5)cn4)ncc3F)cc2n1C(C)C [Compound A29] ?
result: 16.4
